TARGET_OR_TEST_SYSTEM: T1, human Claudin18.2 (CLDN18.2) on the surface of CHO-K1-CLDN18.2 cells (human, UniProt P56856-2 1-261)
T1 construct: whole, on cells; Membrane protein overexpressed on CHO-K1 cells; also called hCLDN18.2; antigen on the surface of CHO-K1-CLDN18.2 cell
ASSAY_PROCEDURE: cell ELISA on CHO-K1-CLDN18.2 cells
OBSERVATION_TYPE: EC50 (nM)
// note: answer is a bare numeric in nM

Entry under review: humanized anti-human CLDN18.2 antibody 8C5.1H1L2 (antibody, human IgG1, kappa, V domains shown) VH: EVQLVESGGGLVKPGGSLRLSCAASGFTFSNSAVSWVRQAPGKRLEWVATITSGVSYTYYLDSVRGRFTISRDNAKNSLYLQMNSLRAEDTAVYYCTRQFKGNALDYWGQGTSVTVSS VL: DIVMTQSPSSLSVSPGERVTISCKSSQSLLNSGNQKNYLTWYQQKPGQPPKLLIYWASTRESGVPDRFSGSGSGTDFTLTISSFQAEDVAVYYCQNDYFYPLTFGAGTKLELKR . Reported EC50?
0.108
